experiment: Solubility test 2: 5 mg in 0.5 ml ion-exchanged water, macroscopic (10 mg/ml); format: physicochemical; details: room temperature, 5 minutes shaking
Readout: Solubility 10 mg/mL

I would be grateful if you could share the reported Solubility 10 mg/mL for `CCn1c(=Cc2sc3ccccc3[n+]2CCOCCOCCOC)sc(=C2Oc3ccc4ccccc4c3N2C)c1=O` .
soluble

Fill blank: measured Solubility 10 mg/mL of the compound `CCn1c(=Cc2sc3c4ccccc4ccc3[n+]2CCOCCOCCOC)sc(=CC=C2Sc3ccc4ccccc4c3N2C)c1=O` is ____.
suspension

What does the data say about its Solubility 10 mg/mL? Entry: `CCn1c(=Cc2sc3ccccc3[n+]2CCOCCOCCOCCOC)sc(=C2Sc3ccc4ccccc4c3N2C)c1=O`
soluble

Please give the measured Solubility 10 mg/mL for this compound: `CCn1c(=Cc2sc3ccccc3[n+]2CCOCCOCCOC)sc(=C2Sc3c(ccc4ccccc34)N2C)c1=O`
suspension

Name the reported Solubility 10 mg/mL value associated with the compound `CCn1c(=Cc2sc3ccccc3[n+]2CCOCCOCCOC)sc(=C2Sc3ccccc3N2C)c1=O`
soluble

Now for another entry.
So what does the record say about Solubility 10 mg/mL for CCn1c(=Cc2sc3ccccc3[n+]2CC)sc(=C2Sc3ccc4ccccc4c3N2C)c1=O [Compound S-1, reference compound] ?
suspension

###

test: Solubility in 5% glucose solution for injection, macroscopic (10 mg/ml); assay type: physicochemical; settings: room temperature, 5 minutes shaking
Readout: Solubility 10 mg/mL

In the examples that follow, each entry is paired with its recorded Solubility 10 mg/mL.
Solubility 10 mg/mL lookup needed for `CCn1c(=Cc2sc3c4ccccc4ccc3[n+]2CCOCCOCCOC)sc(=CC=C2Sc3ccc4ccccc4c3N2C)c1=O` , thanks.
soluble

Name the reported Solubility 10 mg/mL value associated with the molecule `CC[n+]1c(C=c2sc(=C3Sc4c(ccc5ccccc45)N3C)c(=O)n2CCOCCOCCOC)sc2ccccc21`
soluble

Query: Solubility 10 mg/mL; subject: `CCn1c(=Cc2sc3ccccc3[n+]2CCOCCOCCOC)sc(=C2Sc3c(ccc4ccccc34)N2C)c1=O`
soluble

Query (molecule): `CCn1c(=Cc2sc3c4ccccc4ccc3[n+]2CCOCCOCCOC)sc(=C2Sc3ccccc3N2C)c1=O` ; field requested: Solubility 10 mg/mL
soluble

# query: Solubility 10 mg/mL of entry CCn1c(=Cc2sc3ccccc3[n+]2CCOCCO)sc(=C2Sc3ccc4ccccc4c3N2C)c1=O [Compound S-3, reference compound]
suspension

May I ask what Solubility 10 mg/mL has been recorded for CCn1c(=Cc2sc3ccccc3[n+]2CC)sc(=C2Sc3ccc4ccccc4c3N2C)c1=O [Compound S-1, reference compound] ?
suspension

Others:
Entry `CCN1C(=O)C(=C2Sc3ccc4ccccc4c3N2C)SC1=Nc1scc[n+]1CCOCCOCCOC` has what Solubility 10 mg/mL?
soluble

Solubility 10 mg/mL for `CCn1c(=Cc2sc3ccccc3[n+]2CCOCCOCCOCCOC)sc(=C2Sc3ccc4ccccc4c3N2C)c1=O` ?
soluble

Returns the measured Solubility 10 mg/mL for the input molecule. Input: CCn1c(=Cc2sc3ccccc3[n+]2CCOC)sc(=C2Sc3ccc4ccccc4c3N2C)c1=O [Compound S-2, reference compound]
suspension

Data request, read-out Solubility 10 mg/mL, for `CCn1c(=Cc2sc3ccccc3[n+]2CCOCCOCCOC)sc(=C2Sc3ccc(OC)cc3N2C)c1=O`
soluble

Can you share its Solubility 10 mg/mL? I mean this molecule: `CCn1c(=Cc2sc3c4ccccc4ccc3[n+]2CCOCCOCCOC)sc(=C2SCCN2C)c1=O`
soluble

# lookup: Solubility 10 mg/mL of `CCn1c(=Cc2sc3ccccc3[n+]2CCOCCOCCOC)sc(=C2Oc3ccc4ccccc4c3N2C)c1=O`
soluble

I would be grateful if you could share the reported Solubility 10 mg/mL for `CCn1c(=Cc2sc3ccccc3[n+]2CCOCCOCCOC)sc(=C2Sc3ccc4ccccc4c3N2C)c1=O` .
soluble

# query: Solubility 10 mg/mL of entry `CCn1c(=Cc2sc3ccccc3[n+]2CCOCCOCCOC)sc(=C2Sc3ccccc3N2C)c1=O`
soluble

###

test: Solubility test 2: 5 mg in 0.5 ml ion-exchanged water, macroscopic (10 mg/ml); format: physicochemical; settings: room temperature, 5 minutes shaking
Readout: Solubility 10 mg/mL

Past entries and their recorded results:
Data request, read-out Solubility 10 mg/mL, for CCn1c(=Cc2sc3c4ccccc4ccc3[n+]2CCOCCOCCOC)sc(=C2Sc3ccccc3N2C)c1=O [Compound 1-11]
soluble

For the compound CCn1c(=Cc2sc3ccccc3[n+]2CCOC)sc(=C2Sc3ccc4ccccc4c3N2C)c1=O [Compound S-2, reference compound] , what Solubility 10 mg/mL is on record?
suspension

For the compound shown here, CCn1c(=Cc2sc3c4ccccc4ccc3[n+]2CCOCCOCCOC)sc(=C2SCCN2C)c1=O [Compound 1-14] , give the reported Solubility 10 mg/mL.
soluble

# input compound: CCn1c(=Cc2sc3c4ccccc4ccc3[n+]2CCOCCOCCOC)sc(=C2Sc3ccc4ccccc4c3N2C)c1=O [Compound 1-5] ; wanted: its Solubility 10 mg/mL
suspension

What value of Solubility 10 mg/mL has been reported for the following compound? CCn1c(=Cc2sc3ccccc3[n+]2CCC2OCCCO2)sc(=C2Sc3ccc4ccccc4c3N2C)c1=O [Compound 1-9]
suspension

***
// returns reported Solubility 10 mg/mL for input CC[n+]1c(C=c2sc(=C3Sc4c(ccc5ccccc45)N3C)c(=O)n2CCOCCOCCOC)sc2ccccc21 [Compound 1-7]
soluble

Reported Solubility 10 mg/mL, compound CCn1c(=Cc2sc3ccccc3[n+]2CCOCCOCCOC)sc(=C2Sc3ccc4ccccc4c3N2C)c1=O [Compound 1-3] : ____
soluble

###

assay: Solubility test 2: 5 mg in 0.5 ml ion-exchanged water, macroscopic (10 mg/ml); assay type: physicochemical; conditions: room temperature, 5 minutes shaking
Readout: Solubility 10 mg/mL

What measured Solubility 10 mg/mL goes with `CCn1c(=Cc2sc3ccccc3[n+]2CCOCCOCCOC)sc(=C2Sc3ccc(OC)cc3N2C)c1=O` ?
soluble

# query: Solubility 10 mg/mL of entry `CCN1C(=O)C(=C2Sc3ccc4ccccc4c3N2C)SC1=Nc1scc[n+]1CCOCCOCCOC`
soluble

Endpoint output: Solubility 10 mg/mL of `CCn1c(=Cc2sc3ccccc3[n+]2CC)sc(=C2Sc3c(ccc4ccccc34)N2CCOCCOCCOC)c1=O` . Value?
soluble

###

experiment: Solubility test 1: 5 mg in 5 ml ion-exchanged water, macroscopic (1 mg/ml); format: physicochemical; conditions: room temperature, 5 minutes shaking, 1 mg/ml
Readout: Solubility 1 mg/mL

Reference set (4 entries):
Can you share its Solubility 1 mg/mL? I mean this compound: CCn1c(=Cc2sc3ccccc3[n+]2CCOCCOCCOCCOC)sc(=C2Sc3ccc4ccccc4c3N2C)c1=O [Compound 1-4]
soluble

Look up Solubility 1 mg/mL for this compound: CCn1c(=Cc2sc3ccccc3[n+]2CCOCCOCCOC)sc(=C2Sc3ccc(OC)cc3N2C)c1=O [Compound 1-13]
soluble

Fill blank: measured Solubility 1 mg/mL of the compound CCN1C(=O)C(=C2Sc3ccc4ccccc4c3N2C)SC1=Nc1scc[n+]1CCOCCOCCOC [Compound 1-15] is ____.
soluble

Solubility 1 mg/mL lookup needed for CCn1c(=Cc2sc3c4ccccc4ccc3[n+]2CCOCCOCCOC)sc(=CC=C2Sc3ccc4ccccc4c3N2C)c1=O [Compound 1-16] , thanks.
soluble

New cases:
Solubility 1 mg/mL for CCn1c(=Cc2sc3ccccc3[n+]2CCOCCOCCOC)sc(=C2Sc3ccc4ccccc4c3N2C)c1=O [Compound 1-3] ?
soluble

Which Solubility 1 mg/mL value belongs to CC[n+]1c(C=c2sc(=C3Sc4c(ccc5ccccc45)N3C)c(=O)n2CCOCCOCCOC)sc2ccccc21 [Compound 1-7] ?
soluble

Solubility 1 mg/mL for CCn1c(=Cc2sc3c4ccccc4ccc3[n+]2CCOCCOCCOC)sc(=C2SCCN2C)c1=O [Compound 1-14] ?
soluble

Record request: Solubility 1 mg/mL value, item CCn1c(=Cc2sc3ccccc3[n+]2CCOCCO)sc(=C2Sc3ccc4ccccc4c3N2C)c1=O [Compound S-3, reference compound]
suspension

Field request: Solubility 1 mg/mL | item: CCn1c(=Cc2sc3ccccc3[n+]2CCOCCOCCOC)sc(=C2Sc3ccccc3N2C)c1=O [Compound 1-12]
soluble

# Solubility 1 mg/mL lookup, item CCn1c(=Cc2sc3ccccc3[n+]2CC)sc(=C2Sc3ccc4ccccc4c3N2C)c1=O [Compound S-1, reference compound]
suspension

Query (compound): CCn1c(=Cc2sc3c4ccccc4ccc3[n+]2CCOCCOCCOC)sc(=C2Sc3ccc4ccccc4c3N2C)c1=O [Compound 1-5] ; field requested: Solubility 1 mg/mL
soluble

Look up Solubility 1 mg/mL for this compound: CCn1c(=Cc2sc3ccccc3[n+]2CC)sc(=C2Sc3c(ccc4ccccc34)N2CCOCCOCCOC)c1=O [Compound 1-6]
soluble

For the compound shown here, CCn1c(=Cc2sc3c4ccccc4ccc3[n+]2CCOCCOCCOC)sc(=C2Sc3ccccc3N2C)c1=O [Compound 1-11] , give the reported Solubility 1 mg/mL.
soluble

Which Solubility 1 mg/mL reading was recorded for the compound CCn1c(=Cc2sc3ccccc3[n+]2CCOC)sc(=C2Sc3ccc4ccccc4c3N2C)c1=O [Compound S-2, reference compound] ?
suspension

Which value of Solubility 1 mg/mL has been reported for CCn1c(=Cc2sc3ccccc3[n+]2CCC2OCCCO2)sc(=C2Sc3ccc4ccccc4c3N2C)c1=O [Compound 1-9] in the records?
soluble

Which value of Solubility 1 mg/mL has been reported for CCn1c(=Cc2sc3ccccc3[n+]2CCOCCOCCOC)sc(=C2Oc3ccc4ccccc4c3N2C)c1=O [Compound 1-10] in the records?
soluble

Quick check: Solubility 1 mg/mL of CCn1c(=Cc2sc3ccccc3[n+]2CCOCCOCCOC)sc(=C2Sc3c(ccc4ccccc34)N2C)c1=O [Compound 1-8] ?
soluble

Origin of measurements: patent US5599825A
